- TARGET_OR_TEST_SYSTEM: Sex hormone-binding globulin (Homo sapiens) (UniProt P04278)
- Sequence (P04278 whole entry): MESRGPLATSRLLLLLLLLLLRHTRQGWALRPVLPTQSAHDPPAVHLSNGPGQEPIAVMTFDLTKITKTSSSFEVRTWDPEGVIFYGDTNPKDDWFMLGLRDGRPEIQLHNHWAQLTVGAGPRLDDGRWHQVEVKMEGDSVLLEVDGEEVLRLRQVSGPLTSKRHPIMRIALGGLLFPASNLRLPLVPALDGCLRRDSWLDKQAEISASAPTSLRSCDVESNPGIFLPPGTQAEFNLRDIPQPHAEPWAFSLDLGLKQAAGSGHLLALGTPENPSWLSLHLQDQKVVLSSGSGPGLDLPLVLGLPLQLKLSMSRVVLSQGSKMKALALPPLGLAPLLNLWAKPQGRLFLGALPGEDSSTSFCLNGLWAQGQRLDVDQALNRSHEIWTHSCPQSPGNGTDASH
Criterion: Log 1/K strictly less than 7. Met: yes. Not met: no.

# TODO verify Log 1/K < 7 strictly for this compound: C[C@]12CC[C@H](O)C[C@@H]1CC[C@@H]1[C@@H]2CC[C@]2(C)[C@@H](O)CC[C@@H]12
no

Another compound: C[C@]12CC[C@H](O)CC1=CC[C@@H]1[C@@H]2CC[C@]2(C)C(=O)CC[C@@H]12
no

Also need C[C@]12CC[C@H]3[C@@H](CCC4=CC(=O)CC[C@@]43C)[C@@H]1CC[C@@H]2C(=O)CO , thanks.
no

Subsequent entry: C[C@]12CC[C@@H]3c4ccc(O)cc4CC[C@H]3[C@@H]1C[C@@H](O)[C@@H]2O
yes

Consider next the compound C[C@]12C[C@H](O)[C@H]3[C@@H](CCC4=CC(=O)CC[C@@]43C)[C@@H]1CC[C@@H]2C(=O)CO in the same way.
yes

* * *

Heads up, these compounds all have Log 1/K values measured for Sex hormone-binding globulin (Homo sapiens).
// no unit, no text: just the number

Could you tell me which Log 1/K is on file for CC(=O)[C@H]1CC[C@H]2[C@@H]3CC=C4C[C@@H](O)CC[C@]4(C)[C@H]3CC[C@]12C ?
7.15

// query: CC(=O)[C@@]1(O)CC[C@H]2[C@@H]3CC=C4C[C@@H](O)CC[C@]4(C)[C@H]3CC[C@@]21C
6.36

Next entry: C[C@]12CC[C@H]3[C@@H](CCC4=CC(=O)CC[C@@]43C)[C@@H]1CC[C@@H]2O
9.2

Also C[C@]12CCC(=O)C=C1CC[C@@H]1[C@@H]2CC[C@]2(C)C(=O)CC[C@@H]12 , if possible.
7.46

# iterate: C[C@]12CCC(=O)C=C1CC[C@@H]1[C@@H]2[C@@H](O)C[C@@]2(C)[C@H]1CC[C@]2(O)C(=O)CO
6.2

Then what about the compound CC(=O)[C@H]1CC[C@H]2[C@@H]3CCC4=CC(=O)CC[C@]4(C)[C@H]3CC[C@]12C ?
6.94

Field entry: C[C@]12CCC(=O)C=C1CC[C@@H]1[C@@H]2[C@@H](O)C[C@]2(C=O)[C@@H](C(=O)CO)CC[C@@H]12
5.32

Please answer likewise for C[C@]12CCC(=O)C=C1CC[C@@H]1[C@@H]2C(=O)C[C@@]2(C)[C@H]1CC[C@]2(O)C(=O)CO
6.43

* * *

System: Corticosteroid-binding globulin (Homo sapiens) (UniProt P08185) | Read-out: Log 1/K
Note: the reply should be a number with no unit written.

Requested field: Log 1/K. Item: C[C@@H]1C[C@@]2(C)C(=CC1=O)CC[C@H]1[C@@H]3CC[C@](O)(C(=O)CO)[C@@]3(C)C[C@H](O)[C@@]12F
5.8

Input CC(=O)[C@H]1CC[C@H]2[C@@H]3CCC4=CC(=O)CC[C@@H]4[C@H]3CC[C@]12C
6.82

Same thing, different molecule: CC(=O)[C@H]1CC[C@H]2[C@@H]3CC=C4C[C@@H](O)CC[C@]4(C)[C@H]3CC[C@]12C
5.25

What do you get for C[C@]12CCC(=O)C=C1CC[C@@H]1[C@@H]2C(=O)C[C@@]2(C)[C@H]1CC[C@]2(O)C(=O)CO ?
6.89

Same for CC(=O)[C@@]1(C)CCC2C3CCC4=CC(=O)CC[C@]4(C)C3CC[C@@]21C (stereo partly specified)
7.12

Consider next the molecule C[C@]12CC[C@H]3[C@@H](CCC4=CC(=O)CC[C@@H]43)[C@@H]1CC[C@@H]2O in the same way.
6.14

Entry to check: C[C@]12CCC(=O)C=C1CC[C@@H]1[C@@H]2[C@@H](O)C[C@]2(C=O)[C@@H](C(=O)CO)CC[C@@H]12
6.28

Moving on to the next molecule: CC(=O)[C@@]1(O)CC[C@H]2[C@@H]3CCC4=CC(=O)CC[C@]4(C)[C@H]3CC[C@@]21C
7.74

Same lookup for CC(=O)[C@@]1(O)CC[C@H]2[C@@H]3CC=C4C[C@@H](O)CC[C@]4(C)[C@H]3CC[C@@]21C , please.
5

And what about the molecule C[C@]12CCC(=O)C=C1CC[C@@H]1[C@@H]2CC[C@@]2(C)[C@H]1CC[C@]2(O)C(=O)CO ?
7.88

What about C[C@]12C[C@@H](O)[C@H]3[C@@H](CCC4=CC(=O)CC[C@@]43C)[C@@H]1CC[C@@H]2C(=O)CO ?
7.2

Item: C[C@]12C=CC(=O)C=C1CC[C@@H]1[C@@H]2[C@@H](O)C[C@@]2(C)[C@H]1CC[C@]2(O)C(=O)CO
7.51

Now try C[C@]12CC[C@H]3[C@@H](CCC4=CC(=O)CC[C@@]43C)[C@@H]1CC[C@@H]2C(=O)CO .
7.65

And what about the molecule CC(=O)[C@@]1(O)[C@H](O)C[C@H]2[C@@H]3CCC4=CC(=O)CC[C@]4(C)[C@H]3CC[C@@]21C ?
6.25

Another molecule to look at: C[C@]12CC[C@H](O)C[C@@H]1CC[C@@H]1[C@@H]2CC[C@]2(C)[C@@H](O)CC[C@@H]12
5

Now the same for CC(=O)[C@H]1CC[C@H]2[C@@H]3CCC4=CC(=O)CC[C@]4(C)[C@H]3C(=O)C[C@]12C
6.78

* * *

Give Log 1/K for every item shown.
- TARGET_OR_TEST_SYSTEM: UniProt:P08185
- Sequence (whole entry): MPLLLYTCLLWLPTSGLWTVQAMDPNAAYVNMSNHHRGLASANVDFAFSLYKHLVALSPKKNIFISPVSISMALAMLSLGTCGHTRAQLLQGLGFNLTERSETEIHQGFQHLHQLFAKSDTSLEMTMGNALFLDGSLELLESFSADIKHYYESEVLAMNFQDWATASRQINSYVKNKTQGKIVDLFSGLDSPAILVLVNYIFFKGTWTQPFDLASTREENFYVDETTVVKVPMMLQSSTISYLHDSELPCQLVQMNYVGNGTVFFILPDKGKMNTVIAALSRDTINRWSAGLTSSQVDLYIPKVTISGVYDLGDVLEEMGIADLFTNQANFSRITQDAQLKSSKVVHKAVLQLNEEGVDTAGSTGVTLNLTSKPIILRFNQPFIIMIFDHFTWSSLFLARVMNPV

What Log 1/K value was documented for this compound, C[C@]12CC[C@@H]3c4ccc(O)cc4CC[C@H]3[C@@H]1C[C@@H](O)[C@@H]2O ?
5

Can you check C[C@]12CCC(=O)C=C1CC[C@@H]1[C@@H]2CC[C@]2(C)C(=O)CC[C@@H]12 next?
5.76

Repeat for the following compound: C[C@]12CC[C@H](O)CC1=CC[C@@H]1[C@@H]2CC[C@]2(C)C(=O)CC[C@@H]12
5

Cool, now C[C@]12C[C@H](O)[C@H]3[C@@H](CCC4=CC(=O)CC[C@@]43C)[C@@H]1CC[C@@H]2C(=O)CO
7.88

Can you handle C[C@]12CCC(=O)C=C1CC[C@@H]1[C@@H]2[C@@H](O)C[C@@]2(C)[C@H]1CC[C@]2(O)C(=O)CO next?
7.88

Another compound to check: CC(=O)OCC(=O)[C@@]1(O)CCC2C3CCC4=CC(=O)CC[C@]4(C)C3C(O)C[C@@]21C (stereo partly drawn)
7.55

Param item: CC(=O)[C@H]1CC[C@H]2[C@@H]3CCC4=CC(=O)CC[C@]4(C)[C@H]3CC[C@]12C
7.38

Queued: C[C@]12CC[C@H]3[C@@H](CCC4=CC(=O)CC[C@@]43C)[C@@H]1CC[C@@H]2O
6.72

* * *

- ASSAY_NAME: Hammett constant was evaluated
- Format: ADME
Decision: Hammett constant beneath 0.2 gives yes; Hammett constant meeting or exceeding 0.2 gives no.

Item CS(=O)(=O)c1cccc(C(=O)O)c1 : Hammett constant beneath 0.2, strictly?
no

Thanks! And O=C(O)c1cccc(Br)c1 ?
no

Okay, and CCc1ccc(C(=O)O)cc1 ?
yes

Next record, please: O=C(O)c1ccc(C(F)(F)C(F)(F)F)cc1
no

Again, but for O=C(O)c1ccc([N+](=O)[O-])cc1
no

Same thing, different molecule: O=C(O)c1cccc(C(F)(F)F)c1
no

Same read-out for O=C(O)c1ccccc1 ?
yes

Further, for CSc1cccc(C(=O)O)c1 ?
yes

// query: COc1cccc(C(=O)O)c1
yes

Now consider Cc1cccc(C(=O)O)c1 .
yes

Please do the same for O=C(O)c1ccc(Br)cc1 as well.
no

Note, next up: Nc1cccc(C(=O)O)c1
yes

Continue with O=C(O)c1cccc(S(=O)(=O)F)c1
no

Follow-up item: O=C(O)c1cccc(I)c1
no

Cool, now O=C(O)c1cccc(S(=O)(=O)C(F)(F)F)c1
no

# iterate: CSc1ccc(C(=O)O)cc1
yes

Note, next up: O=C(O)c1ccc(S)cc1
yes

Same thing, different molecule: O=C(O)c1ccc(I)cc1
yes

Now the molecule O=C(O)c1cccc(CCl)c1
yes

Cool, now O=C(O)c1ccc(S(=O)(=O)C(F)(F)F)cc1
no

Check O=C(O)c1cccc(SC(F)(F)F)c1 too.
no

Please answer likewise for O=C(O)c1cccc(F)c1
no

Also, Nc1ccc(C(=O)O)cc1 please.
yes

Record: O=C(O)c1ccc(CBr)cc1
yes

Then this molecule: O=C(O)c1ccc(OC(F)(F)F)cc1
no

// repeat for N#Cc1ccc(C(=O)O)cc1 and report
no

Same thing, different molecule: O=C(O)c1ccc(C(F)(F)F)cc1
no

One more molecule: O=C(O)c1cccc([N+](=O)[O-])c1
no

How about this molecule: O=C(O)c1cccc(CBr)c1
yes

Please do the same for N#Cc1cccc(C(=O)O)c1 as well.
no

Next molecule up: COc1ccc(C(=O)O)cc1
yes

Would you mind doing O=C(O)c1cccc(O)c1 [3-HYDROXYBENZOIC ACID] as well?
yes

Also need O=C(O)c1ccc(O)cc1 , thanks.
yes

Cool, now Cc1ccc(C(=O)O)cc1
yes

Same for O=C(O)c1ccc(CCl)cc1
yes

Same thing, different molecule: CC(C)(C)c1cccc(C(=O)O)c1
yes

O=C(O)c1ccc(S(=O)(=O)F)cc1 ?
no

Now the same for O=C(O)c1cccc(OC(F)(F)F)c1
no

Continue with CC(C)(C)c1ccc(C(=O)O)cc1
yes

Field entry: CCc1cccc(C(=O)O)c1
yes

// same read-out, input: O=C(O)c1ccc(F)cc1
yes

Further, for O=C(O)c1cccc(CI)c1 ?
yes

Entry to check: O=C(O)c1cccc(S)c1
no

Consider next the molecule CS(=O)(=O)c1ccc(C(=O)O)cc1 in the same way.
no

Entry to check: O=C(O)c1ccc(CI)cc1
yes

Entry O=C(O)c1cccc(Cl)c1 please
no

And for O=C(O)c1cccc(C(F)(F)C(F)(F)F)c1 ?
no

Next: O=C(O)c1ccc(SC(F)(F)F)cc1
no
